Source: the RepoRT retention time repository (doi:10.1021/acs.analchem.1c00972)

assay.info: RP, Waters ACQUITY UPLC BEH C18, 100 × 1 mm, 1.7 µm, 50 °C, 0.3 mL/min, estimated dead time 0.17 min; A: water + 10 mM ammonium bicarbonate; B: 10% water + 90% methanol + 10 mM ammonium bicarbonate; gradient (min/%B) 0/0 15/100 21/100 22/0 30/0
condition: stereoisomer not certain
Catalogue of LC retention time values

>  <compound>
CC1C(C)(C)C2=C(C(=O)CCC2)C1(C)C (stereo not drawn)

>  <unit.of.measure>
min

>  <LC retention time>
16.6

$$$$
>  <compound>
COc1cccc(C2(O)CCCCC2CN(C)C)c1 (stereo not drawn)

>  <unit.of.measure>
min

>  <LC retention time>
14

$$$$
>  <compound>
CN(C)C(=O)NC1CCCCC1

>  <unit.of.measure>
min

>  <LC retention time>
11.1

$$$$
